- SYSTEM UNDER TEST: human 5-HT3A receptors (Homo sapiens)
- Construct: expressed in transfected cells; host or cells: Xenopus laevis oocytes (cRNA from pGEMHE)
- Sequence (P46098 24-478): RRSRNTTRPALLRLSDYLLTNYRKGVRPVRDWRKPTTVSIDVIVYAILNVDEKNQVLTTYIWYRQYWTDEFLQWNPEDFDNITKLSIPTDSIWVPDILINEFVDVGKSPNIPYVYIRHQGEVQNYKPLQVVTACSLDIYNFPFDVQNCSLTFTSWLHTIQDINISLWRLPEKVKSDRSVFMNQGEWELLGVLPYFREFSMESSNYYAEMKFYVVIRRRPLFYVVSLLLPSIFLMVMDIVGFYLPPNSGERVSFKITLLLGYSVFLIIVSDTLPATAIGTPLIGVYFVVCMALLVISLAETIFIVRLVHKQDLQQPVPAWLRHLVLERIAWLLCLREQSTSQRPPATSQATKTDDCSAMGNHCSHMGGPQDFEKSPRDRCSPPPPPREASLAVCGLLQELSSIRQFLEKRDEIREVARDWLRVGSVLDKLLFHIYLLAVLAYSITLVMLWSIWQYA
- METHOD NOTES: Two-electrode voltage clamp of 5-HT-induced currents in Xenopus oocytes, incl. co-application
- Type: cell-based
- COND: abstract; 5-HT-induced responses, Xenopus oocytes; read-out: IC50
- Procedure: Stage V and VI oocytes were injected with 50 nl of ∼300 ng μl^−1 cRNA, and currents were recorded 1–4 days post-injection. A ratio of 1:3 (A:B) was used for the expression of heteromeric 5-HT3 receptors. Xenopus laevis oocyte positive females were purchased from NASCO (Fort Atkinson, Wisconsin, USA) and maintained according to standard methods. Currents were filtered at a frequency of 1 kHz. […]
MEASURED ATTRIBUTE: IC50

input: Query: IC50; subject: C[C@@H]1C(=O)O[C@H]2C[C@@]34[C@H]5C[C@@H](C(C)(C)C)[C@]36[C@@H](OC(=O)[C@@H]6O)O[C@@]4(C(=O)O5)[C@]21O [GA, ginkgolide A]
output: > 1 mM
